# ASSAY TARGET: human ALK2 R206H (Homo sapiens, UniProt Q04771, R206H)
# Construct: expressed in transfected cells; host or cells: HEK293 (ATCC CRL1573), lentivirus transduction, blasticidin selection
# TEST METHOD NOTES: Cell-based ALK2-R206H cell activity assay (Smad1-Ser463/Ser465 phosphorylation by AlphaLISA in HEK293-ALK2-R206H cells)
# CONDITION LABEL: read-out: Cell Line (Cell Assay IC50)
# Experimental: A HEK293 (ATCC, Cat^# CRL1573) based stable cell line expressing human ALK2 R206H cDNA (synthesized by GeneScript, Piscataway, N.J.) and a FLAG tag at the C-terminus was generated by lentivirus transduction and subsequent blasticidin (Life Technologies, Cat^#-A1113902) selection at 10 μg/ml for >2 wks. This cell line was named HEK293-ALK2-R206H. Test compounds were first diluted to 4 mM or 0.4 mM and then serially diluted 3-fold into 10 different concentrations using DMSO. […]
pIC50: −log10 of the molar value.
ENDPOINT LABEL: pIC50

{"COMPOUND": "CCOC1(c2ccc(-c3cc4c(N5CCN(C(=O)OC[C@H](C)F)CC5)ccnn4c3)nc2)CCN(C(C)C)CC1", "RESULT": "> 7.00"}
{"COMPOUND": "CC(C)N1CC2(CN(c3ccc(-c4cc5c(N6CCN(C(=O)[C@H]7CC[C@H](O)CC7)CC6)ccnn5c4)cc3)C2)C1", "RESULT": "> 7.00"}
{"COMPOUND": "COC1(c2ccc(-c3cc4c(N5CCN(C(=O)C6CC6)CC5)ccnn4c3)nc2)CCN(C(C)C)CC1", "RESULT": "> 7.00"}
{"COMPOUND": "CC(C)N1CC[C@@H](c2ccc(-c3cc4c(N5CCN(C(=O)C6CC6)CC5)ccnn4c3)cc2)C1", "RESULT": "> 7.00"}
{"COMPOUND": "CC(C)N1CC(O)(c2ccc(-c3cc4c(N5CCN(C(=O)C6CCC(C#N)CC6)CC5)ccnn4c3)cc2)C1 (centres unmarked)", "RESULT": "> 7.00"}
{"COMPOUND": "C[C@@H]1CN(c2ccc(-c3cc4c(N5CCN(C(=O)C6CC6)CC5)ccnn4c3)cc2)CCN1", "RESULT": "6.30 to 7.00"}
{"COMPOUND": "COC1(c2ccc(-c3cc4c(N5CCN(C(=O)NC(C)C)CC5)ccnn4c3)c(F)c2)CCN(C(C)C)CC1", "RESULT": "> 7.00"}
{"COMPOUND": "O=C(C1CC1)N1CCN(c2ccnn3cc(-c4ccc(O[C@@H]5CCCNC5)cc4)cc23)CC1", "RESULT": "> 7.00"}
{"COMPOUND": "CCO[C@]1(c2ccc(-c3cc4c(N5CCN(C(=O)C6CC6)CC5)ccnn4c3)cc2)CCCN(C(C)C)C1", "RESULT": "> 7.00"}
{"COMPOUND": "CCN1CC(F)C(c2ccc(-c3cc4c(N5CCN(C(=O)C6CC6)CC5)ccnn4c3)cc2)C1 (centres unmarked)", "RESULT": "> 7.00"}
{"COMPOUND": "O=C(C1CC1)N1CCN(c2ccnn3cc(-c4cnn(C5CCNC5)c4)cc23)CC1 (centres unmarked)", "RESULT": "6.30 to 7.00"}

* * *

# ASSAY TARGET: human ALK2 R206H (Homo sapiens, UniProt Q04771, R206H)
# Construct: expressed in transfected cells; host or cells: HEK293 (ATCC CRL1573), lentivirus transduction, blasticidin selection
# TEST METHOD NOTES: Cell-based ALK2-R206H cell activity assay (Smad1-Ser463/Ser465 phosphorylation by AlphaLISA in HEK293-ALK2-R206H cells)
# CONDITION LABEL: read-out: Cell Line (Cell Assay IC50)
ENDPOINT LABEL: IC50

{"COMPOUND": "CC(C)NC(=O)N1CCN(c2ccnn3cc(-c4ccc(N5CCN(C(C)C)CC5)cc4)cc23)CC1 [Compound 348]", "ASSAY TARGET": "human ALK2 R206H (Homo sapiens, UniProt Q04771, R206H)", "ENDPOINT LABEL": "IC50", "RESULT": "< 100 nM"}
{"COMPOUND": "CCOC(=O)N1CCN(c2ccnn3cc(-c4ccc(C5(OCC)CCN(C(C)C)CC5)cc4)cc23)CC1 [Compound 831]", "ASSAY TARGET": "human ALK2 R206H (Homo sapiens, UniProt Q04771, R206H)", "ENDPOINT LABEL": "IC50", "RESULT": "< 100 nM"}
{"COMPOUND": "N[C@H](CO)c1ccc(-c2cc3c(N4CCN(C(=O)C5CC5)CC4)ccnn3c2)cc1 [Compound 752]", "ASSAY TARGET": "human ALK2 R206H (Homo sapiens, UniProt Q04771, R206H)", "ENDPOINT LABEL": "IC50", "RESULT": "100 to 500 nM"}
{"COMPOUND": "CCNC(=O)N1CCN(c2ccnn3cc(-c4ccc(C5(O)CCN(C(C)C)CC5)cc4)cc23)CC1 [Compound 352]", "ASSAY TARGET": "human ALK2 R206H (Homo sapiens, UniProt Q04771, R206H)", "ENDPOINT LABEL": "IC50", "RESULT": "100 to 500 nM"}
{"COMPOUND": "C[C@@H]1CN(c2ccnn3cc(-c4ccc(N5CCNCC5)nc4)cc23)CCN1C(=O)C1CC1 [Compound 170]", "ASSAY TARGET": "human ALK2 R206H (Homo sapiens, UniProt Q04771, R206H)", "ENDPOINT LABEL": "IC50", "RESULT": "100 to 500 nM"}
{"COMPOUND": "CCOC(=O)N1CCN(c2ccnn3cc(-c4ccc([C@@]5(C)CN(C(C)C)CCN5)cc4)cc23)CC1 [Compound 597]", "ASSAY TARGET": "human ALK2 R206H (Homo sapiens, UniProt Q04771, R206H)", "ENDPOINT LABEL": "IC50", "RESULT": "< 100 nM"}
{"COMPOUND": "CC(C)N1CC(O)(c2ccc(-c3cc4c(N5CCN(C(=O)C6CC(C#N)C6)CC5)ccnn4c3)cc2)C1 (stereo not drawn) [Compound 616]", "ASSAY TARGET": "human ALK2 R206H (Homo sapiens, UniProt Q04771, R206H)", "ENDPOINT LABEL": "IC50", "RESULT": "< 100 nM"}
{"COMPOUND": "[2H]C([2H])([2H])C([2H])([2H])N1CCN(c2ccc(-c3cc4c(N5CCN(C(=O)C6CC6)CC5)ccnn4c3)cc2)CC1 [Compound 237]", "ASSAY TARGET": "human ALK2 R206H (Homo sapiens, UniProt Q04771, R206H)", "ENDPOINT LABEL": "IC50", "RESULT": "< 100 nM"}
{"COMPOUND": "CCNC(=O)N1CCN(c2ccnn3cc(-c4ccc([C@]5(OC)CCCN(C(C)C)C5)c(F)c4)cc23)CC1 [Compound 699]", "ASSAY TARGET": "human ALK2 R206H (Homo sapiens, UniProt Q04771, R206H)", "ENDPOINT LABEL": "IC50", "RESULT": "< 100 nM"}

* * *

# ASSAY TARGET: ALK2 R206H (GST-tagged mutant ALK2) (Homo sapiens, UniProt Q04771, R206H)
# Construct: purchased Carna Bioscience or ThermoFisher 09-148 or PV6232
# Sequence (Q04771 21-509 R206H): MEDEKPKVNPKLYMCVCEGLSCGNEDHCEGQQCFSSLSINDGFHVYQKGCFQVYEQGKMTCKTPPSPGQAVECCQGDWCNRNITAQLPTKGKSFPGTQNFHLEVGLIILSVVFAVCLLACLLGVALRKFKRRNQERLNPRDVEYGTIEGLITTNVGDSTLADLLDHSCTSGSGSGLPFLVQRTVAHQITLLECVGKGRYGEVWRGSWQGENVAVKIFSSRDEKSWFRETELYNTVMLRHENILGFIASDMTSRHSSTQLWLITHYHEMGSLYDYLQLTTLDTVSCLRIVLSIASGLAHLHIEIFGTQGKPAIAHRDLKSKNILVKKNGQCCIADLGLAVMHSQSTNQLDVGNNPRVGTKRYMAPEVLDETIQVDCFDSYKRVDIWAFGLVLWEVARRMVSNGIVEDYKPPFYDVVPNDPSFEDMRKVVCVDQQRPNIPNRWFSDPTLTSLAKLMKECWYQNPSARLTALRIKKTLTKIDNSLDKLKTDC
# TEST METHOD NOTES: ALK binding assay (LANTHASCREEN TR-FRET competitive binding, displacement of Kinase Tracer 178)
# CONDITION LABEL: ALK2 R206H, LANTHASCREEN TR-FRET competitive binding; read-out: Binding Assay (IC50)
pIC50: −log10 of the molar value.
pIC50 values for the compounds below.
ENDPOINT LABEL: pIC50

{"COMPOUND": "CCN1CCC(c2ccc(-c3cc4c(N5CCN(C(=O)C6CC6)CC5)ccnn4c3)cc2)C1 (centres unmarked)", "RESULT": "> 8.00"}
{"COMPOUND": "CCNC(=O)N1CCN(c2ccnn3cc(-c4ccc(C5(O)CCN(C(C)C)CC5)cc4)cc23)CC1", "RESULT": "> 8.00"}
{"COMPOUND": "CO[C@@]1(c2ccc(-c3cc4c(N5CCN(C(=O)NC(C)C)CC5)ccnn4c3)cc2)CCCNC1", "RESULT": "> 8.00"}
{"COMPOUND": "CCOC(=O)N1CCN(c2ccnn3cc(-c4ccc(C5CCN(CC)CC5)cc4)cc23)CC1", "RESULT": "> 8.00"}
{"COMPOUND": "CCOC(=O)N1CCN(c2ccnn3cc(-c4ccc(C5(OC)CCN(C(C)C)CC5)cc4)cc23)CC1", "RESULT": "> 8.00"}
{"COMPOUND": "CC(C)N1CCC(O)(c2ccc(-c3cc4c(N5CCN(C(=O)C6CC6)CC5)ccnn4c3)cc2)CC1", "RESULT": "> 8.00"}
{"COMPOUND": "CCN1CCC(c2ccc(-c3cc4c(N5CCN(C(=O)[C@H]6C[C@@H]6C)CC5)ccnn4c3)cc2)C1 (some centres unmarked)", "RESULT": "> 8.00"}
{"COMPOUND": "CCOC(=O)N1CCN(c2ccnn3cc(-c4ccc([C@@]5(F)CCCNC5)cc4)cc23)CC1", "RESULT": "> 8.00"}
{"COMPOUND": "O=C(C1CC1)N1CCN(c2ccnn3cc(-c4ccc(C5CCNCC5(F)F)cc4)cc23)CC1 (centres unmarked)", "RESULT": "> 8.00"}
{"COMPOUND": "CCNC(=O)N1CCN(c2ccnn3cc(-c4ccc([C@]5(O)CCCN(C(C)C)C5)cc4)cc23)CC1", "RESULT": "> 8.00"}
{"COMPOUND": "CC(C)NC(=O)N1CCN(c2ccnn3cc(-c4ccc([C@]5(C)CN(C(C)C)CCN5C)cc4)cc23)CC1", "RESULT": "> 8.00"}
{"COMPOUND": "C[C@@]1(c2ccc(-c3cc4c(N5CCN(C(=O)C6CC6)CC5)ccnn4c3)cc2)CCCN1", "RESULT": "> 8.00"}
{"COMPOUND": "CC(C)NC(=O)N1CCN(c2ccnn3cc(-c4ccc(C5COCCN5C(C)C)cc4)cc23)CC1 (centres unmarked)", "RESULT": "> 8.00"}
{"COMPOUND": "CC(C)N1CC[C@H](c2ccc(-c3cc4c(N5CCN(C(=O)[C@H]6C[C@H](C#N)C6)CC5)ccnn4c3)cc2)C1", "RESULT": "> 8.00"}
{"COMPOUND": "CO[C@@]1(c2ccc(-c3cc4c(N5CCN(C(=O)NC(C)C)CC5)ccnn4c3)cc2F)CCCNC1", "RESULT": "> 8.00"}
{"COMPOUND": "CC(C)NC(=O)N1CCN(c2ccnn3cc(-c4ccc(C56CCN(CC5)CC6)cc4)cc23)CC1", "RESULT": "> 8.00"}
{"COMPOUND": "O=C(C1CC1)N1CCN(c2ccnn3cc(-c4ccc(N5CC6(CCNC6)C5)cc4)cc23)CC1", "RESULT": "7.30 to 8.00"}
{"COMPOUND": "CC(C)N1CCC(c2ccc(-c3cc4c(N5CCN(C(=O)C6COC6)CC5)ccnn4c3)cc2)CC1", "RESULT": "> 8.00"}
{"COMPOUND": "CCOC(=O)N1CCN(c2ccnn3cc(-c4ccc([C@]5(OC)CCCNC5)cn4)cc23)CC1", "RESULT": "> 8.00"}
{"COMPOUND": "O=C(C1CC1)N1CCN(c2ccnn3cc(-c4ccc(N5CCN(CC(F)F)CC5)cc4)cc23)CC1", "RESULT": "> 8.00"}
{"COMPOUND": "CC(C)N1CCC(c2ccc(-c3cc4c(N5CCN(C(=O)NCCC#N)CC5)ccnn4c3)cc2)CC1", "RESULT": "> 8.00"}
{"COMPOUND": "CC(C)N1CC2(CN(c3ccc(-c4cc5c(N6CCN(C(=O)[C@H]7C[C@H](C#N)C7)CC6)ccnn5c4)cc3)C2)C1", "RESULT": "> 8.00"}
{"COMPOUND": "CCNC(=O)N1CCN(c2ccnn3cc(-c4ccc([C@H]5CCN(C(C)C)C5)cc4)cc23)CC1", "RESULT": "> 8.00"}
